Organism: Homo sapiens
Assay: Selectivity index, ratio of IC50 for human MAO-B to IC50 for human MAO-A
So I've got a bunch of compounds here, and I need their Ratio IC50 values.
Give bare numbers.

Completed entries (count: 2):
C=CCC/C(C)=N\Nc1nc(-c2ccc3ccccc3c2)cs1; 2.86
Cc1sc(N/N=C2\CCCC2C)nc1-c1ccccc1 (configuration not stated); 0.56

Provide the reported Ratio IC50 of each entry below, same order.
1. CC1CCC/C(=N\Nc2nc(-c3ccc4ccccc4c3)cs2)C1 (configuration not stated)
2. Cc1sc(N/N=C2\CCCCC2C)nc1-c1ccccc1 (configuration not stated)
3. C/C(=N\Nc1nc(-c2ccc3ccccc3c2)cs1)c1cc2ccccc2oc1=O
4. CC(C)=NNc1nc(-c2ccccc2)c(C)s1

1: 5.56; 2: 0.34; 3: 1.67; 4: 2.08

Provide the reported Ratio IC50 of each entry below, same order.
1. CC1CC/C(=N\Nc2nc(-c3ccc4ccccc4c3)cs2)C1 (configuration not stated)
2. Cc1sc(NN=C2CCC(C)CC2)nc1-c1ccccc1 (configuration not stated)

1: 1.82; 2: 0.66

Provide the reported Ratio IC50 of each entry below, same order.
1. C/C(=N\Nc1nc(-c2ccccc2)c(C)s1)c1cc2ccccc2oc1=O
2. C/C(=N\Nc1nc(-c2ccccc2)c(C)s1)c1ccccc1
3. CCC(CC)=NNc1nc(-c2ccc3ccccc3c2)cs1

0.33
1
1.25

---

Target: Amine oxidase [flavin-containing] A (Homo sapiens)
Sequence (P21397 whole entry): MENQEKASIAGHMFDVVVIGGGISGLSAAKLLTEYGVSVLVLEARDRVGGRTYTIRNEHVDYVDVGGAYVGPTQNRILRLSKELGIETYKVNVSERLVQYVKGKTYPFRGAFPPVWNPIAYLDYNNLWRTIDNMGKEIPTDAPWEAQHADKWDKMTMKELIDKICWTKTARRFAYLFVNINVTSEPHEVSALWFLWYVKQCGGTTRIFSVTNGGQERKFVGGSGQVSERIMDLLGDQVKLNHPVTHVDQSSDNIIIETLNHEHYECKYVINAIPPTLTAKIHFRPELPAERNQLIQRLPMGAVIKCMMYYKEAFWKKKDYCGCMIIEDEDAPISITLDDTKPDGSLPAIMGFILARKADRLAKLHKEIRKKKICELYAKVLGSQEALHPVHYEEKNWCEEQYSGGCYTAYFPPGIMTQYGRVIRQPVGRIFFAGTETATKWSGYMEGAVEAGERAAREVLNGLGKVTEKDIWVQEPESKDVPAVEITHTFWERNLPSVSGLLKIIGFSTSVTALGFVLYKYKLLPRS
Assay: Inhibition of human MAO-A expressed in baculovirus infected BTI-TN-5B1-4 insect cells using p-tyramine as substrate assessed as hydrogen peroxide production by fluorimetric method
Settings: bti-tn-5b1-4
Test readout: pIC50
Numbers only, as −log10 of the molar value.

GET /values?readout=pIC50&item= Cc1sc(NN=C2CCC(C)CC2)nc1-c1ccccc1 (stereo unspecified) 5.41

---

Target: Amine oxidase [flavin-containing] A (Homo sapiens)
Sequence (P21397 whole entry): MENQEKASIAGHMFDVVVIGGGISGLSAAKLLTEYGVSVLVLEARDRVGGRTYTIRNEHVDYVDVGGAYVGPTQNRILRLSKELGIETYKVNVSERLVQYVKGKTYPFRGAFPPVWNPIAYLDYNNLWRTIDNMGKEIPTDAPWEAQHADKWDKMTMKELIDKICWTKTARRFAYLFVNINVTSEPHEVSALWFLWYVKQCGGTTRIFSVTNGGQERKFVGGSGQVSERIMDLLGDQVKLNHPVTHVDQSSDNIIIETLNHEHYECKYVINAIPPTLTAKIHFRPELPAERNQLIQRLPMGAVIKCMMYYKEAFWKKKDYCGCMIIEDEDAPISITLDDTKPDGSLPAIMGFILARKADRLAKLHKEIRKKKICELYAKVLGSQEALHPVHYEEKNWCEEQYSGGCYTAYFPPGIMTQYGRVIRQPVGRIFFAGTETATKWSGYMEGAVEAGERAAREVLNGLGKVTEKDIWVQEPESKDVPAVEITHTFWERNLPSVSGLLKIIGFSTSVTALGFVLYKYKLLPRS
Experiment: Inhibition of human MAO-A expressed in baculovirus infected BTI-TN-5B1-4 insect cells using p-tyramine as substrate assessed as hydrogen peroxide production by fluorimetric method
Test readout: IC50

Completed entries (count: 10):
C=CCC/C(C)=N\Nc1nc(-c2ccccc2)c(C)s1; 6.97 µM
CCCC/C(CC)=N\Nc1nc(-c2ccccc2)c(C)s1; 4.13 µM
Cc1sc(NN=C2CCCC2)nc1-c1ccccc1; 0.55 µM
CC(C)=NNc1nc(-c2ccccc2)c(C)s1; 2.55 µM
Cc1sc(N/N=C2\CCCC2C)nc1-c1ccccc1 (stereo not given); 2.44 µM
CCCCC/C(C)=N\Nc1nc(-c2ccccc2)c(C)s1; 3.69 µM
Cc1sc(N/N=C2\CCC(C)C2)nc1-c1ccccc1 (stereo not given); 2.29 µM
Cc1sc(N/N=C2\CCCC(C)C2)nc1-c1ccccc1 (stereo not given); 3.63 µM
CC(C)=NNc1nc(-c2ccc3ccccc3c2)cs1; 1.56 µM
C/C(CC(C)C)=N/Nc1nc(-c2ccc3ccccc3c2)cs1; 2.31 µM

Provide the reported IC50 of each entry below, same order.
1. C(=N\Nc1nc(-c2ccc3ccccc3c2)cs1)/c1ccc2c(c1)OCO2
2. Cc1sc(N/N=C/c2ccco2)nc1-c1ccccc1
3. CCC/C(C)=N\Nc1nc(-c2ccccc2)c(C)s1
4. C/C(=N\Nc1nc(-c2ccccc2)c(C)s1)c1cc2ccccc2oc1=O
5. CCCCCC/C(C)=N\Nc1nc(-c2ccccc2)c(C)s1
6. CC1CC/C(=N\Nc2nc(-c3ccc4ccccc4c3)cs2)C1 (stereo not given)
7. C(=N\Nc1nc(-c2ccc3ccccc3c2)cs1)/c1c[nH]c2ccccc12

["5.92 µM", "1.79 µM", "2.52 µM", "9.18 µM", "3.91 µM", "1.91 µM", "2.34 µM"]

Provide the reported IC50 of each entry below, same order.
1. CCC(CC)=NNc1nc(-c2ccc3ccccc3c2)cs1
2. CC/C(C)=N\Nc1nc(-c2ccccc2)c(C)s1
3. Cc1sc(N/N=C2\CCCCC2C)nc1-c1ccccc1 (stereo not given)
4. C(=N\Nc1nc(-c2ccc3ccccc3c2)cs1)/c1cccnc1
5. C/C(=N\Nc1nc(-c2ccccc2)c(C)s1)c1ccco1
6. C/C(=N\Nc1nc(-c2ccccc2)c(C)s1)c1cccs1
7. C/C(=N\Nc1nc(-c2ccc3ccccc3c2)cs1)c1cc2ccccc2oc1=O
8. C/C(=N\Nc1nc(-c2ccc3ccccc3c2)cs1)c1ccco1

1. 1.86 µM
2. 1.55 µM
3. 3.23 µM
4. 2.57 µM
5. 1.68 µM
6. 2.67 µM
7. 6.47 µM
8. 1.77 µM

---

So I've got a bunch of compounds here, and I need their Ratio IC50 values.
Species on record: Homo sapiens
Experiment: Selectivity index, ratio of IC50 for human MAO-B to IC50 for human MAO-A
One number for each entry.

Cc1sc(N/N=C/c2cccnc2)nc1-c1ccccc1; 1.22
Cc1sc(N/N=C/c2ccncc2)nc1-c1ccccc1; 0.16
C/C(=N\Nc1nc(-c2ccccc2)c(C)s1)c1ccco1; 1.25

Provide the reported Ratio IC50 of each entry below, same order.
1. CCCCCC/C(C)=N\Nc1nc(-c2ccccc2)c(C)s1
2. Cc1sc(NN=C2CCCCC2)nc1-c1ccccc1

1. 1.04
2. 1.01

Provide the reported Ratio IC50 of each entry below, same order.
1. Cc1sc(N/N=C/c2cccs2)nc1-c1ccccc1
2. Cc1sc(N/N=C2\CCCC(C)C2)nc1-c1ccccc1 (stereo not given)
3. CC(C)=NNc1nc(-c2ccc3ccccc3c2)cs1
4. C(=N\Nc1nc(-c2ccc3ccccc3c2)cs1)/c1cccs1
5. C(=N\Nc1nc(-c2ccc3ccccc3c2)cs1)/c1cccc2ccccc12
6. CCC(CC)=NNc1nc(-c2ccccc2)c(C)s1
7. CCC/C(C)=N\Nc1nc(-c2ccc3ccccc3c2)cs1

[0.9, 0.76, 2.27, 1.72, 1.41, 1.49, 1.72]

Provide the reported Ratio IC50 of each entry below, same order.
1. Cc1sc(N/N=C/c2c[nH]c3ccccc23)nc1-c1ccccc1
2. Cc1sc(N/N=C2\CCC(C)C2)nc1-c1ccccc1 (stereo not given)
3. CC1CCC/C1=N\Nc1nc(-c2ccc3ccccc3c2)cs1 (stereo not given)
4. C/C(=N\Nc1nc(-c2ccccc2)c(C)s1)c1nccs1
5. CCCCC/C(C)=N\Nc1nc(-c2ccccc2)c(C)s1

[0.45, 1.01, 1.11, 0.043, 1.64]

---

Target: Amine oxidase [flavin-containing] B (Homo sapiens, UniProt P27338)
Sequence (P27338 whole entry): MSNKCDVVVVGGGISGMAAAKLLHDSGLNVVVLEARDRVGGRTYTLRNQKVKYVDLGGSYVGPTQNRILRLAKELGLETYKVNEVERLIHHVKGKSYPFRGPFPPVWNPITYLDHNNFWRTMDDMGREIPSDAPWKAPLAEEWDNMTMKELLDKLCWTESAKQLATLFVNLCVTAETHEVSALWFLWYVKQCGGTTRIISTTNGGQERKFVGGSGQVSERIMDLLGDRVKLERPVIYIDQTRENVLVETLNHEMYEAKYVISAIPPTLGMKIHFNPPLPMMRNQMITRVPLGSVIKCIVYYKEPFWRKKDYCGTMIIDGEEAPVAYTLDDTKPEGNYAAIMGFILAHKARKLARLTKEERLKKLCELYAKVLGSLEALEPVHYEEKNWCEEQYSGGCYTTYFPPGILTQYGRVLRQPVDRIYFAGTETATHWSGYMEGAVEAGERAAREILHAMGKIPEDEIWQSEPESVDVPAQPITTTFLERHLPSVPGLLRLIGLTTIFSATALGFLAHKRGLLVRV
Test: biochemical
Assay type: cell-based, BTI-TN-5B1-4
Description: Inhibition of human MAO-B expressed in baculovirus infected BTI-TN-5B1-4 insect cells using p-tyramine as substrate assessed as hydrogen peroxide production by fluorimetric method
Test readout: IC50 (µM)
Give bare numbers, in µM.

Provide the reported IC50 of each entry below, same order.
1. C/C(=N\Nc1nc(-c2ccc3ccccc3c2)cs1)c1ccccc1
2. C/C(=N\Nc1nc(-c2ccccc2)c(C)s1)C1CCCCC1

1: 6.23; 2: 6.14
